Values compiled from ChEMBL document CHEMBL4118117.

- System under test: Free fatty acid receptor 1 (Homo sapiens)
- Sequence (O14842 whole entry): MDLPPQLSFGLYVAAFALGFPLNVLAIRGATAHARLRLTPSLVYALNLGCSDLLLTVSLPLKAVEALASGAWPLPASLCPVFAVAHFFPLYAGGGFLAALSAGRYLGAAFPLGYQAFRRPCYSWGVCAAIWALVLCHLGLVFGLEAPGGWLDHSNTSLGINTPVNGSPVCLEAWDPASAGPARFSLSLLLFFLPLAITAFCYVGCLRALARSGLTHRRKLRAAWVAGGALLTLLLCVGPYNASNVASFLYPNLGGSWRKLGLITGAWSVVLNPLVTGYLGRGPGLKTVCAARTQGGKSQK
- Method: Transactivation of recombinant human FFAR1 expressed in CHOK1 cells co-expressing Galpha15 assessed as increase in calcium flux measured after 20 secs for 100 secs by FLIPR assay
- Assay type: functional, cell-based
Readout label: EC50

Known EC50 results, listed for orientation:
# Molecule, Observed
rows = [
    ("O=C1NC(=O)C(Cc2ccc(OCCn3c(-c4ccccc4)cc4ccccc43)cc2)S1 (stereo not given)", "Not Active"),
    ("O=C1NC(=O)C(Cc2ccc(OCCn3c(CO)nc4ccccc43)cc2)S1 (stereo not given)", "Not Active"),
    ("Cc1ccccc1C(OCCOc1ccc(CC2SC(=O)NC2=O)cc1)c1ccccc1 (stereo not given)", "Not Active"),
    ("O=C1NC(=O)C(Cc2ccc(OCCOc3cccc4ccccc34)cc2)S1 (stereo not given)", "Not Active"),
]

Data request: Which measured EC50 belongs to O=C1NC(=O)C(Cc2ccc(OCCOC(c3ccccc3)c3ccc(Cl)cc3)cc2)S1 (stereo not given) , tested on Free fatty acid receptor 1 (Homo sapiens)?
Data returned: Not Active
